Sourced from patent US6545032B1

Reported Minus NSB* values follow for various molecules
# target of assay: mu opiate receptor (Rattus norvegicus, UniProt P33535)
# Construct: from tissue; host or cells: rat brain membranes/homogenate
# Sequence (P33535 whole entry): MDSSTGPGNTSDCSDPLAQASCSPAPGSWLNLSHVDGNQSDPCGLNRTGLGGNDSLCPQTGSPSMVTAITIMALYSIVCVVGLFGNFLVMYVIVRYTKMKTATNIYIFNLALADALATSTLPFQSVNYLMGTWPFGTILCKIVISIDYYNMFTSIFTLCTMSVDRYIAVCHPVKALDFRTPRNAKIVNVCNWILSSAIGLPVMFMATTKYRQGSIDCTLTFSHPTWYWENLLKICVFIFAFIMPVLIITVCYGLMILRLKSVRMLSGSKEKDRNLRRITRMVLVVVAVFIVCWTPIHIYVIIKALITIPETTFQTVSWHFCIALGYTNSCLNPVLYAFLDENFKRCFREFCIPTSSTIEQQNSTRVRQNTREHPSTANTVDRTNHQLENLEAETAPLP
# protocol description: Inhibition of [3H]DAMGO binding to the mu opiate receptor in rat brain homogenates
# condition summary: mean minus non-specific binding; 0.08 mg of compound per milliliter, 7 nM 3H-labeled DAMGO, rat brain membranes
Lab note: jot the number down without any unit.

Q: Give its Minus NSB* value. Item: CC(C)c1nc(C2CCCCC2)n2c1NC(=O)C2C(C)C (stereo not drawn) [Pool 137]
A: 625.35

Q: How about Cc1nc(C(C)C)c2n1C(C)C(=O)N2 (stereo not drawn) [Pool 18] ?
A: 681.15

Q: How about Cc1nc(C)n2c1NC(=O)C2C(C)C (stereo not drawn) [Pool 35] ?
A: 445.50

Q: How about CC(C)c1nc(C2CCC2)n2c1NC(=O)C2C(C)C (stereo not drawn) [Pool 144] ?
A: 559.30

Q: How about CC(C)c1nc(CCC2CCCCC2)n2c1NC(=O)C2C(C)C (stereo not drawn) [Pool 148] ?
A: 582.80

Below: the item to evaluate.
Q: Give its Minus NSB* value. Item: CCCC1C(=O)Nc2c(C(C)C)nc(C)n21 (stereo not drawn) [Pool 12]
A: 690.70

###

# target of assay: mu opiate receptor (Rattus norvegicus, UniProt P33535)
# Construct: from tissue; host or cells: rat brain membranes/homogenate
# protocol description: Inhibition of [3H]DAMGO binding to the mu opiate receptor in rat brain homogenates
# Set-up: unit not given beside the values
# condition summary: mean bound radioactivity of [3H]DAMGO; 0.08 mg of compound per milliliter, 7 nM 3H-labeled DAMGO, rat brain membranes
metric: Mean
Lab note: jot the number down without any unit.

Q: Give its Mean value. Item: CC(C)c1nc(Cc2cccc(F)c2)n2c1NC(=O)C2C(C)C (racemic)
A: 853.7

Q: How about CCC(c1ccccc1)c1nc(C(C)C)c2n1C(C(C)C)C(=O)N2 (mixture of isomers) ?
A: 935.45

Q: How about Cc1nc(Cc2ccccc2)c2n1C(C(C)C)C(=O)N2 (stereo not shown) [Pool 47] ?
A: 897.8

Q: How about CC(C)c1nc(C2CCCC2)n2c1NC(=O)C2C(C)C (stereo not shown) ?
A: 986.9

Q: How about Cc1nc(C(C)C)c2n1C(C(C)C)C(=O)N2 (stereo not shown) [Pool 142] ?
A: 946.05

Q: How about Cc1nc(Cc2ccc(O)cc2)c2n1C(C(C)C)C(=O)N2 (racemic) [Pool 64] ?
A: 710.9

Q: How about CC(C)Cc1nc(C(C)C)c2n1C(C(C)C)C(=O)N2 (stereo not shown) ?
A: 763.7

Q: How about Cc1nc(C(C)C)c2n1C(Cc1ccccc1)C(=O)N2 (stereo not shown) ?
A: 929.9

Others:
Q: Give its Mean value. Item: CC1CCC(Cc2nc(C(C)C)c3n2C(C(C)C)C(=O)N3)CC1 (stereo not shown)
A: 770.1

Q: How about CC(C)c1nc(CC(C)c2ccccc2)n2c1NC(=O)C2C(C)C (mixture of isomers) ?
A: 900.1

Q: How about CCC(C)Cc1nc(C(C)C)c2n1C(C(C)C)C(=O)N2 (stereo not shown) ?
A: 918.7

Q: How about COc1ccc(Cc2nc(C(C)C)c3n2C(C(C)C)C(=O)N3)cc1 (racemic) ?
A: 775.2

Q: How about Cc1nc(CC(C)C)c2n1C(C(C)C)C(=O)N2 (stereo not shown) [Pool 53] ?
A: 988.95

Q: How about CC(C)c1nc(Cc2cc(C(F)(F)F)cc(C(F)(F)F)c2)n2c1NC(=O)C2C(C)C (racemic) ?
A: 911.65

Q: How about COc1cccc(Cc2nc(C(C)C)c3n2C(C(C)C)C(=O)N3)c1 (racemic) ?
A: 854

Q: How about Cc1nc(CC2CCCCC2)c2n1C(C(C)C)C(=O)N2 (stereo not shown) [Pool 46] ?
A: 881.4
